ASSAY_TARGET: myeloperoxidase (MPO) (Homo sapiens, UniProt P05164)
Sequence (P05164 49-745): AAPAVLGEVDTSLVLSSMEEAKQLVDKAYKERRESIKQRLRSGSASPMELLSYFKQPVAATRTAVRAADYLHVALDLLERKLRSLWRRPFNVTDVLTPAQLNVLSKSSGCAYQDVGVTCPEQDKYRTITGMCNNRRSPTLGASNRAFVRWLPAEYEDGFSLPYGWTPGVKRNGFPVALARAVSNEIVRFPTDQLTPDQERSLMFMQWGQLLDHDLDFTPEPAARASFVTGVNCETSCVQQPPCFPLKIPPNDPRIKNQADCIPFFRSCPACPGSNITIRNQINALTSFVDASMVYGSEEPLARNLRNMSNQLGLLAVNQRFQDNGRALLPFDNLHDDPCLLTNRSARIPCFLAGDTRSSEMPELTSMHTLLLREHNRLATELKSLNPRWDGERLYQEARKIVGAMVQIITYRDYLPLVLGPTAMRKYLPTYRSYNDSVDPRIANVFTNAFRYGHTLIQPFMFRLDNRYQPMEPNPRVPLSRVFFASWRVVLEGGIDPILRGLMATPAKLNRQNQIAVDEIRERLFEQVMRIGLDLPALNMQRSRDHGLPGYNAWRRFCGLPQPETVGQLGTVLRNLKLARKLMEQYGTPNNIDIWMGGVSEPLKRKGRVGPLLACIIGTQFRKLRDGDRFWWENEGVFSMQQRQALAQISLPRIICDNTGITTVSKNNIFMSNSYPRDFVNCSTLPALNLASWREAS
ASSAY_METHOD_TEXT: MPO peroxidation assay (Amplex Red assay)
Format: biochemical
DETAILS: MPO peroxidation, potency range class; read-out: Amplex Red IC50
pIC50: −log10 of the molar value.
QUANTITY_NAME: pIC50

molecule="N#Cc1cnn(-c2ccc(COc3cc(N)nc4[nH]nnc34)c(OC(F)(F)F)c2)c1 [Example 270]" measured_value="7.00 to 9.00"
molecule="N#Cc1cc(-n2cnc3ccccc32)ccc1COc1cc(N)nc2[nH]nnc12 [Example 274]" measured_value="6.00 to 7.00"
molecule="Nc1cc(OCc2cccc(-c3cccnc3)c2)c2nn[nH]c2n1 [Example 103]" measured_value="7.00 to 9.00"
molecule="Nc1cc(OCc2cccc(C(=O)N3CCOCC3)c2)c2nn[nH]c2n1 [Example 25]" measured_value="6.00 to 7.00"

stdin: I have this molecule here, COc1ncc(-c2ccc(COc3cc(N)nc4[nH]nnc34)c(C#N)c2)cc1F [Example 323] , and I need its recorded pIC50.
stdout: 7.00 to 9.00

stdin: I have this molecule here, NC(=O)c1ccccc1COc1cc(N)nc2[nH]nnc12 [Example 254] , and I need its recorded pIC50.
stdout: 5.00 to 6.00

stdin: I have this molecule here, Cc1nc(-c2ccc(COc3cc(N)nc4[nH]nnc34)c(F)c2)no1 [Example 251] , and I need its recorded pIC50.
stdout: 7.00 to 9.00

stdin: I have this molecule here, Nc1cc(OCc2cccc(-c3ccc(-c4ccccc4)cc3)c2)c2nn[nH]c2n1 [Example 102] , and I need its recorded pIC50.
stdout: 6.00 to 7.00

stdin: I have this molecule here, CN1CCN(c2ccc(-c3ccc(F)c(COc4cc(N)nc5[nH]nnc45)c3)cn2)CC1 [Example 346] , and I need its recorded pIC50.
stdout: 6.00 to 7.00

stdin: I have this molecule here, CS(=O)(=O)c1cccc(Cl)c1COc1cc(N)nc2[nH]nnc12 [Example 225] , and I need its recorded pIC50.
stdout: 7.00 to 9.00

stdin: I have this molecule here, Nc1cc(OCc2ccc(Br)cc2)c2nn[nH]c2n1 [Example 106] , and I need its recorded pIC50.
stdout: 7.00 to 9.00

stdin: I have this molecule here, CS(=O)(=O)c1cc(Cl)ccc1COc1cc(N)nc2[nH]nnc12 [Example 131] , and I need its recorded pIC50.
stdout: 7.00 to 9.00

stdin: I have this molecule here, Nc1cc(OCc2ccc(-c3ccccc3F)cc2)c2nn[nH]c2n1 [Example 114] , and I need its recorded pIC50.
stdout: 6.00 to 7.00

stdin: I have this molecule here, COC(=O)c1ccc(COc2cc(N)nc3[nH]nnc23)c(Cl)c1 [Example 194] , and I need its recorded pIC50.
stdout: 7.00 to 9.00

stdin: I have this molecule here, CCN(CCO)C(=O)c1ccc(Cl)c(COc2cc(N)nc3[nH]nnc23)c1 [Example 184] , and I need its recorded pIC50.
stdout: 6.00 to 7.00

stdin: I have this molecule here, Nc1cc(OCc2cccc(F)c2F)c2nn[nH]c2n1 [Example 129] , and I need its recorded pIC50.
stdout: 7.00 to 9.00

stdin: I have this molecule here, Nc1cc(OCc2cc(Br)ccc2F)c2nn[nH]c2n1 [Example 61] , and I need its recorded pIC50.
stdout: 7.00 to 9.00

stdin: I have this molecule here, CN1CCN(c2ccc(-c3ccc(COc4cc(N)nc5[nH]nnc45)c(C#N)c3)cn2)CC1 [Example 319] , and I need its recorded pIC50.
stdout: 7.00 to 9.00
